Data credit: patent US20110142842A1

Target: HLA-A*0201 (human, UniProt A*02:01)
Assay: REVEAL MHC binding assay (ProImmune)
Attribute Measured: % Pass/fail control

Example entries begin here.
LLLTISLLV [Peptide ID 81 LLLTISLLV (CD52)]: 250 % of pass/fail control
RLLFFLLFL [Peptide ID 112 RLLFFLLFL (CD19)]: 42.3 % of pass/fail control

**Query** Bench note: what % Pass/fail control did RMPWYHSSL [Peptide ID 95 RMPWYHSSL (ZAP-70)] show?
**Result** 85.6 % of pass/fail control

**Query** Bench note: what % Pass/fail control did FMQPLFLVA [Peptide ID 62 FMQPLFLVA (HA-1)] show?
**Result** 215 % of pass/fail control

**Query** Bench note: what % Pass/fail control did WMGGVSEPL [Peptide ID 116 WMGGVSEPL (MPO)] show?
**Result** 199 % of pass/fail control

**Query** Bench note: what % Pass/fail control did LLLSGAARV (Modified peptide) [Peptide ID 138 LLLSGAARV (PR3, modified peptide)] show?
**Result** 210 % of pass/fail control

**Query** Bench note: what % Pass/fail control did ILTALFLRV [Peptide ID 61 ILTALFLRV (TCR_TV)] show?
**Result** 159 % of pass/fail control

**Query** Bench note: what % Pass/fail control did FLQDTFPQQ [Peptide ID 70 FLQDTFPQQ (CD127)] show?
**Result** 49.8 % of pass/fail control
